tested on: SN12C renal; test: NCI tumour cell line growth inhibition, 48 h

| Compound Smiles | GI50 |
| --- | --- |
| COc1cc2c(/C=C3/C(=O)Nc4ccccc43)c(Cl)n(Cc3ccccc3)c2cc1C | > 100 µM |
| CC[C@@]1(O)C(=O)NCc2c1cc1n(c2=O)Cc2cc3cc4c(cc3nc2-1)OCO4 | 0.328 µM |
| CCOC(=O)c1cc2c(cc1Cl)SC(N(c1ccc(F)cc1)S(=O)(=O)c1ccc(OC)cc1)=NS2(=O)=O | 19.3 µM |
| S=C(Nc1ccccc1)c1ccccn1 | 95.9 µM |
| Nc1cc(N)c2nc(-c3ccccc3)c(Nc3ccc(F)cc3)nc2c1 | 15.6 µM |
| CCN(CC)c1ccc(/C=N/NC(=O)c2ccc(Nc3ccnc(C(F)(F)F)c3)cc2)c(O)c1 | 0.395 µM |
| COc1ccc(/C=C/C(=O)c2ccc(Nc3ncnc4ccccc34)cc2)cc1OC | 10.9 µM |
| Cn1c2ccccc2c2c(=O)n(CCCC(=O)NCC(=O)OC(=NC3CCCCC3)NC3CCCCC3)c3c(-c4ccccc4)nnn3c21 | 19.5 µM |
| COC(=O)C1=CN(CC2=CC(=O)C(C)=CC2=O)C=C(C(=O)OC)C1c1cccc(OC)c1OC | 13.8 µM |

* * *

system: HCT-116 colon; test: NCI tumour cell line growth inhibition, 48 h
Measured Endpoint: TGI

| Compound | Measured Endpoint | Result |
| --- | --- | --- |
| COc1cc(N2CCC(N(C)C)CC2)ccc1Nc1ncc(Cl)c(Nc2ccccc2P(C)(C)=O)n1 | TGI | > 39.2 µM |
| O=C(Nc1ccccc1Cl)c1cnc2ccc(C3CCNCC3)cn12 | TGI | > 100 µM |
| COC(=O)n1c(=O)nc2c3c(ncn21)Oc1c(c(-c2ccccc2)nn1-c1ccccc1)C3c1ccc(Cl)cc1 (stereo unspecified) | TGI | 2.17 µM |
| CC(=NNC(=S)Nc1ccccc1C)c1cccc(C(C)=NNC(=S)Nc2ccccc2C)n1 | TGI | > 100 µM |
| N=C(c1ccccc1)N1CCCCC1 | TGI | > 100 µM |
| O=[N+]([O-])c1ccc(Cc2nc3ccccc3s2)cc1 | TGI | > 100 µM |
| COc1c(O)cc(/C=C/c2cc(O)cc3c2[C@@]2(C(=O)O3)c3c(O)cc(O)cc3OC2c2cccc(O)c2)cc1O (stereo partly specified) | TGI | > 100 µM |
| CCOc1ccc(NCC(=O)N2CC(=O)Nc3ccccc32)cc1 | TGI | > 100 µM |
| CCN(CC)CCC(=O)Nc1cccc2c1C(=O)c1c(c(O)c3ccccc3c1O)C2=O | TGI | > 100 µM |
| Cc1sc2ncnc(Sc3nc4ccccc4[nH]3)c2c1C | TGI | > 100 µM |
| O=C(O)CCC(=O)Nc1ccc2c(c1)S(=O)(=O)N(CC(=O)O)C2=O | TGI | > 100 µM |
| COc1cc(/C=C2\CCCC3=C2NC(N)=NC3c2cc(OC)c(OC)c(OC)c2)cc(OC)c1OC (stereo unspecified) | TGI | 1.97 µM |
| COc1ccc(NS(=O)CCc2ccccc2)cc1 (stereo unspecified) | TGI | > 100 µM |
| COc1n[n+]([O-])c(C)cc1[N+](=O)[O-] | TGI | 23.9 µM |
| C1CSCC2(COC2)CS1 | TGI | > 100 µM |
| N#Cc1nc(-c2cccc(Br)c2)cc(-c2ccc(Nc3nc(N4CCCCC4)nc(N4CCCCC4)n3)cc2)c1N | TGI | 3.19 µM |
| CCCCCCCCCCCCCCCC(=O)NC1CCc2cc(O)c(O)c(O)c2-c2ccc(SC)c(=O)cc21 (stereo unspecified) | TGI | 17.2 µM |
| CSC1=N/C(=C\c2cccs2)C(=O)N1CN1CCCCC1 | TGI | > 100 µM |
| COc1ccc2c(c1)c(Cc1c(C)n(C)c3ccc(OC)cc13)c(C)n2C | TGI | > 100 µM |
| COc1ccc(/C=C/C(=O)c2ccc(Nc3ncnc4ccccc34)cc2)cc1OC | TGI | 16.8 µM |
| COc1ccc2c(OC)c3ccoc3nc2c1O | TGI | > 100 µM |
| CN(C)c1cccc2[nH]c(-c3[nH]ncc3Nc3ccnc(N)n3)nc12 | TGI | 1.09 µM |
| CC1(C)OC2C(CO)OC(n3ccc(=O)[nH]c3=O)C2O1 (stereo unspecified) | TGI | > 100 µM |
| CCN(CC)c1ccc(/C=C/C2=NN(c3cccc(S(=O)(=O)O)c3)C3(C2)C(Cl)C(=O)N3c2nc3ccccc3s2)cc1 (stereo unspecified) | TGI | 24.1 µM |
| C/C(=N\NC(N)=S)c1ccc2c(c1)OCO2 | TGI | > 100 µM |
| O=C(Oc1ccccc1)c1cc(O)c(O)c(O)c1 | TGI | > 100 µM |
| COc1ccc(C2=NNC(c3ccc(-c4ccc(OC)cc4[N+](=O)[O-])o3)C2)cc1 (stereo unspecified) | TGI | > 100 µM |
| C[C@]12CC[C@H]3[C@@H](CC=C4C[C@@H](O)CC[C@@]43C)[C@@H]1C/C(=C\c1cccc(OCCN3CCOCC3)c1)[C@@H]2O | TGI | > 100 µM |
| Cn1cnc2c(F)c(Nc3ccc(Br)cc3Cl)c(C(=O)NOCCO)cc21 | TGI | > 100 µM |
| CCCCCCN(C(=O)Oc1ccccc1)C(C#N)c1ccccc1 (stereo unspecified) | TGI | > 100 µM |
| Cc1ccc2c(ccc3c[n+]4ccccc4c(C)c32)c1 | TGI | 27.2 µM |
| Cn1c(=O)nc2n(CCO)c(-c3ccccc3)c(-c3ccccc3)nc-2c1=O | TGI | > 100 µM |
| CC(=O)Nc1ccc(-c2nnc(SCC(=O)Nc3ccccc3Cl)o2)cc1 | TGI | > 100 µM |
| CC1C(=O)N=C2C(=CN(Cc3ccccc3)c3ccccc32)C(=O)N1C (stereo unspecified) | TGI | > 100 µM |
| C=CCOc1cc2c(cc1C(C)c1ccc(OC)cc1)OCO2 (stereo unspecified) | TGI | > 47.9 µM |
| CC[C@@]1(O)C(=O)OCc2c1c(Cl)c1n(c2=O)Cc2cc3ccccc3nc2-1 | TGI | 8.76 µM |
| C/C(=N\NC(=S)N(C)C)c1ncc[nH]1 | TGI | > 100 µM |
| O=C(CCN(CCO)CCO)Nc1ccc2c(c1)C(=O)c1ccc(NC(=O)CCN(CCO)CCO)cc1C2=O | TGI | 33.2 µM |
| CN(C)c1ccc(C(C#N)N2CCCN(C(C#N)c3ccc(N(C)C)cc3)C2c2ccc(N(C)C)cc2)cc1 (stereo unspecified) | TGI | > 100 µM |
| CCOC(=O)C1CCC/C1=N\N=C(N)N (stereo unspecified) (tested in a mixture with another compound) | TGI | > 100 µM |
| CCCOC(=O)c1cc(C(=CCC[C@H]2CC[C@@]3(C)[C@@H](CC[C@@H]4[C@@H]3CC[C@]3(C)[C@@H](C(C)CCCC(C)C)CC[C@@H]43)C2)c2cc(Cl)c(O)c(C(=O)OCCC)c2)cc(Cl)c1O (stereo partly specified) | TGI | > 50 µM |
